Exercise: for every item that follows, state its recorded change in melting temperature (ΔTm).
- test_description: Stabilization of d[(TA)2GC(TA)2T6(TA)2]GC(TA)2 sequence of duplex DNA assessed as change in melting temperature at 1 uM by FRET assay
I'd appreciate it if you wrote the number followed by its unit.

For orientation, consider the following solved cases.
{"line_notation": "O=C(CCN1CCCC1)Nc1cccc(NC(=O)c2ccc(NC(=O)Nc3ccc(C(=O)Nc4cccc(NC(=O)CCN5CCCC5)c4)cc3)cc2)c1", "change in melting temperature (ΔTm)": "4.9 °C"}
{"line_notation": "O=C(CN1CCCC1)Nc1cccc(NC(=O)c2cccc(NC(=O)Nc3cccc(C(=O)Nc4cccc(NC(=O)CN5CCCC5)c4)c3)c2)c1", "change in melting temperature (ΔTm)": "0.3 °C"}
{"line_notation": "O=C(CN1CCCC1)Nc1cccc(NC(=O)c2ccc(NC(=O)Nc3ccc(C(=O)Nc4cccc(NC(=O)CN5CCCC5)c4)cc3)cc2)c1", "change in melting temperature (ΔTm)": "2.5 °C"}

Could you now look at the following compound, please?
change in melting temperature (ΔTm) for O=C(CCN1CCOCC1)Nc1ccc(NC(=O)c2cccc(NC(=O)Nc3cccc(C(=O)Nc4ccc(NC(=O)CCN5CCOCC5)cc4)c3)c2)cc1 ?
0.2 °C

----------
- test_description: Stabilization of d[(TA)2GC(TA)2T6(TA)2]GC(TA)2 sequence of duplex DNA assessed as change in melting temperature at 1 uM by FRET assay
reported_endpoint: change in melting temperature (ΔTm) (°C)
Give bare numbers, in °C.

For orientation, consider the following solved cases.
{"line_notation": "O=C(CCN1CCCC1)Nc1cccc(NC(=O)c2cccc(NC(=O)Nc3cccc(C(=O)Nc4cccc(NC(=O)CCN5CCCC5)c4)c3)c2)c1", "u": "°C", "change in melting temperature (ΔTm)": 2.8}
{"line_notation": "CN(C)c1ccc(Nc2c3ccc(NC(=O)CCN4CCCC4)cc3nc3cc(NC(=O)CCN4CCCC4)ccc23)cc1", "u": "°C", "change in melting temperature (ΔTm)": 11.2}
{"line_notation": "O=C(CCN1CCCCC1)Nc1ccc(NC(=O)c2cccc(NC(=O)Nc3cccc(C(=O)Nc4ccc(NC(=O)CCN5CCCCC5)cc4)c3)c2)cc1", "u": "°C", "change in melting temperature (ΔTm)": 0.1}
{"line_notation": "CN(C)CCC(=O)Nc1ccc(NC(=O)c2cccc(NC(=O)Nc3cccc(C(=O)Nc4ccc(NC(=O)CCN(C)C)cc4)c3)c2)cc1", "u": "°C", "change in melting temperature (ΔTm)": 0.1}
{"line_notation": "O=C(CCN1CCCC1)Nc1ccc(NC(=O)c2cccc(NC(=O)Nc3cccc(C(=O)Nc4ccc(NC(=O)CCN5CCCC5)cc4)c3)c2)cc1", "u": "°C", "change in melting temperature (ΔTm)": 0.4}
{"line_notation": "O=C(CCCN1CCCC1)Nc1cccc(NC(=O)c2ccc(NC(=O)Nc3ccc(C(=O)Nc4cccc(NC(=O)CCCN5CCCC5)c4)cc3)cc2)c1", "u": "°C", "change in melting temperature (ΔTm)": 5.5}

Could you now look at the following compound, please?
change in melting temperature (ΔTm) for O=C(CCCN1CCCC1)Nc1cc(NC(=O)Nc2cc(NC(=O)CCCN3CCCC3)cc(C(=O)Nc3ccccc3)c2)cc(C(=O)Nc2ccccc2)c1 ?
0.5

Provenance of the data: ChEMBL document CHEMBL1151765
